# Test system: HT-29
# experimental.protocol: SRB colorimetric assay of cell growth and viability, HT-29
# Format: cell-based, human
# experimental.parameters: 48 hours exposure; read-out: LC50 HT-29
Where a SMILES comes first, the peptide text is derived from it. Bridges are numbered along the chain shown (N, C = ends). [ ]: non-standard residue; d: D form. The star is where a group is joined. d(aIle) = CC[C@H](C)[C@@H](N)C(=O)O; Hexanoyl(5-Me) = CC(C)CCCC(=O)*; Orn = NCCC[C@H](N)C(=O)O; Dhb = C/C=C(\N)C(=O)O
Recorded CC50 by entry
Reply with just the number (in µM).

# example entries with known answers
[
  {
    "compound": "C/C=C1\\NC(=O)[C@H](Cc2ccccc2)NC(=O)[C@@H](C(C)C)NC(=O)[C@@H]([C@@H](C)CC)NC(=O)[C@H](NC(=O)[C@H](NC(=O)[C@H](CCCN)NC(=O)[C@H]2CCCN2C(=O)[C@H](NC(=O)[C@@H](NC(=O)[C@@H](NC(=O)[C@@H](C)NC(=O)CCCC(C)C)[C@@H](C)O)C(C)C)C(C)C)[C@@H](C)CC)[C@@H](C)OC(=O)[C@H](C(C)C)NC1=O [Compound 34, [D-Ala^13]-KF]",
    "reading.unit": "µM",
    "recorded.measurement": 4.3
  },
  {
    "compound": "C/C=C1\\NC(=O)[C@H](Cc2ccccc2)NC(=O)[C@@H](C(C)C)NC(=O)[C@@H]([C@@H](C)CC)NC(=O)[C@H](NC(=O)[C@H](NC(=O)[C@H](CCCCN)NC(=O)[C@H]2CCCN2C(=O)[C@H](NC(=O)[C@@H](NC(=O)[C@@H](NC(=O)[C@H](NC(=O)CCCC(C)C)C(C)C)[C@@H](C)O)C(C)C)C(C)C)[C@@H](C)CC)[C@@H](C)OC(=O)[C@H](C(C)C)NC1=O [Compound 5, [Lys^8]-KF]",
    "reading.unit": "µM",
    "recorded.measurement": 0.498
  }
]

--- query ---
Task: So what's the measured CC50 for this one? C/C=C1\NC(=O)[C@H](Cc2ccccc2)NC(=O)[C@@H](C(C)C)NC(=O)[C@@H]([C@@H](C)CC)NC(=O)[C@H](NC(=O)[C@H](NC(=O)[C@H](CCCN)NC(=O)[C@H]2CCCN2C(=O)[C@H](NC(=O)[C@@H](NC(=O)[C@@H](NC(=O)[C@H](NC(=O)CCCC(C)C)C(C)C)[C@@H](C)O)C(C)C)C(C)C)[C@@H](C)CC)COC(=O)[C@H](C(C)C)NC1=O [Compound 3, [D-Ser^6]-KF] ({Hexanoyl(5-Me)}-[dV]TV[dV][dP][Orn][d(aIle)][dS][d(aIle)][dV]F[Dhb]V; ester 8-C)
Result: 3.52

====

# Test system: K-562
# experimental.protocol: SRB colorimetric assay of cell growth and viability, K-562
# Format: cell-based, human
# experimental.parameters: 48 hours exposure; read-out: LC50 K-562
Where a SMILES comes first, the peptide text is derived from it. Bridges are numbered along the chain shown (N, C = ends). [ ]: non-standard residue; d: D form. The star is where a group is joined. d(aIle) = CC[C@H](C)[C@@H](N)C(=O)O; d(aThr) = C[C@@H](O)[C@@H](N)C(=O)O; Hexanoyl(5-Me) = CC(C)CCCC(=O)*; dCha = N[C@H](CC1CCCCC1)C(=O)O; Orn = NCCC[C@H](N)C(=O)O; Dhb = C/C=C(\N)C(=O)O
Recorded CC50 by entry

# example entries with known answers
[
  {
    "compound": "C/C=C1\\NC(=O)[C@H](Cc2ccccc2)NC(=O)[C@@H](C(C)C)NC(=O)[C@@H]([C@@H](C)CC)NC(=O)[C@H](NC(=O)[C@H](NC(=O)[C@H](CCCN)NC(=O)[C@H]2CCCN2C(=O)[C@H](NC(=O)[C@@H](NC(=O)[C@H](CCC(=O)O)NC(=O)CCCC(C)C)C(C)C)C(C)C)[C@@H](C)CC)[C@@H](C)OC(=O)[C@H](C(C)C)NC1=O [Compound 56, [Glu^12, noD-Val^13]-KF] ({Hexanoyl(5-Me)}-EV[dV][dP][Orn][d(aIle)][d(aThr)][d(aIle)][dV]F[Dhb]V; ester 7-C)",
    "system.name": "K-562",
    "assay.readout": "CC50",
    "recorded.measurement": "≥ 7.11 µM"
  },
  {
    "compound": "C/C=C1\\NC(=O)[C@H](Cc2ccccc2)NC(=O)[C@@H](CC2CCCCC2)NC(=O)[C@@H](CC2CCCCC2)NC(=O)[C@H](NC(=O)[C@@H](CC2CCCCC2)NC(=O)[C@H](CCCN)NC(=O)[C@H]2CCCN2C(=O)[C@H](NC(=O)[C@@H](NC(=O)[C@@H](NC(=O)[C@H](NC(=O)CCCC(C)C)C(C)C)[C@@H](C)O)C(C)C)C(C)C)[C@@H](C)OC(=O)[C@H](C(C)C)NC1=O [Compound 11, [D-Cha^4, D-Cha^5, D-Cha^7]-KF] ({Hexanoyl(5-Me)}-[dV]TV[dV][dP][Orn][dCha][d(aThr)][dCha][dCha]F[Dhb]V; ester 8-C)",
    "system.name": "K-562",
    "assay.readout": "CC50",
    "recorded.measurement": "4.14 µM"
  },
  {
    "compound": "C/C=C1\\NC(=O)[C@H](Cc2ccccc2)NC(=O)[C@@H](C(C)C)NC(=O)[C@@H]([C@@H](C)CC)NC(=O)[C@H](NC(=O)[C@H](NC(=O)[C@H](CCCN)NC(=O)[C@H]2CCCN2C(=O)[C@H](NC(=O)[C@@H](NC(=O)[C@H](NC(=O)[C@H](NC(=O)CCCC(C)C)C(C)C)[C@H](C)O)C(C)C)C(C)C)[C@@H](C)CC)[C@@H](C)OC(=O)[C@H](C(C)C)NC1=O [Compound 7, [D-Thr^12]-KF]",
    "system.name": "K-562",
    "assay.readout": "CC50",
    "recorded.measurement": "≥ 6.77 µM"
  }
]

Task: Test system K-562; read-out CC50; what value for C/C=C1\NC(=O)[C@H](Cc2ccccc2)NC(=O)[C@@H](C(C)C)NC(=O)[C@@H]([C@@H](C)CC)NC(=O)[C@H](NC(=O)[C@H](NC(=O)[C@H](CCCN)NC(=O)[C@H]2CCCN2C(=O)[C@H](NC(=O)[C@@H](NC(=O)[C@@H](NC(=O)[C@H](NC(=O)CCCC(C)C)[C@H](C)O)[C@@H](C)O)C(C)C)C(C)C)[C@@H](C)CC)[C@@H](C)OC(=O)[C@H](C(C)C)NC1=O [Compound 41, [D-Thr^13]-KF] ?
Result: ≥ 6.76 µM

Task: Would you kindly repeat that for C/C=C1\NC(=O)[C@H](Cc2ccccc2)NC(=O)[C@@H](C(C)C)NC(=O)[C@@H]([C@@H](C)CC)NC(=O)[C@H](NC(=O)[C@H](NC(=O)[C@H](CCCN)NC(=O)[C@H]2CCCN2C(=O)[C@H](NC(=O)[C@H](CC(C)C)NC(=O)[C@@H](NC(=O)[C@H](NC(=O)CCCC(C)C)C(C)C)[C@@H](C)O)C(C)C)[C@@H](C)CC)[C@@H](C)OC(=O)[C@H](C(C)C)NC1=O [Compound 45, [Leu^11]-KF] ({Hexanoyl(5-Me)}-[dV]TL[dV][dP][Orn][d(aIle)][d(aThr)][d(aIle)][dV]F[Dhb]V; ester 8-C) ?
Result: ≥ 6.4 µM

Sourced from patent US20070117743A1
